Biological target: T1, Med25-ACID_(532-680), activator interaction domain (ACID) of mediator complex subunit 25 (Arabidopsis thaliana, UniProt Q7XYY2 532-680)
T1 chain: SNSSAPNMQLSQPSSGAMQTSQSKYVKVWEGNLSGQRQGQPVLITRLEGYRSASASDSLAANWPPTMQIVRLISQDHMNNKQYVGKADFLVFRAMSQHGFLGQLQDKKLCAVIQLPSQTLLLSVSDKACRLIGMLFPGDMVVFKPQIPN
Experiment: NMR; first site (Kd,1), competitive two binding sites model
measurement.label: Kd

>>> endpoint_result("SSDMFDVDELLRDLNGDDVFAG (domain or fragment) [DREB2A_(255-276) (RIM)]")
"280 µM"
